Collected EC50 values appear next to each entry.
System: HRE-bla ME-180 cells
Test: Reporter gene assay (HRE-bla ME-180 HIF reporter, GeneBLAzer)
Format: cell-based, human
Settings: 24 hour normoxia
Bridge positions count the residues as written; N and C are the ends. Square brackets hold non-standard residues; d marks the D form. Peptide text beside a SMILES is read from it. S5 = C=CCCC[C@](C)(N)C(=O)O; Nle = CCCC[C@H](N)C(=O)O

The value of EC50 measured for the compound CCCC[C@H](NC(=O)[C@H](CCC(=O)O)NC(=O)[C@@H](NC(=O)[C@@H](NC(=O)[C@H](CC(N)=O)NC(=O)[C@]1(C)CCCC=CCCC[C@](C)(NC(=O)[C@H](C)NC(=O)[C@H](CC(=O)O)NC(=O)[C@@H](NC(=O)[C@H](Cc2ccccc2)NC(C)=O)[C@@H](C)CC)C(=O)N[C@@H]([C@@H](C)O)C(=O)N[C@@H](CC(C)C)C(=O)N[C@@H](CCCC)C(=O)N1)C(C)C)[C@@H](C)CC)C(=O)N[C@@H](C)C(=O)N[C@@H](CC(C)C)C(N)=O [SP-151] (Ac-FIDA[S5]TL[Nle][S5]NVIE[Nle]AL-NH2; staple 5-9) turned out to be ≤ 5 µM

Continuing:
The value of EC50 measured for the compound CC[C@H](C)[C@H](NC(=O)[C@H](Cc1ccccc1)NC(C)=O)C(=O)N[C@@H](CC(=O)O)C(=O)N[C@@H](CCC(N)=O)C(=O)N[C@@H](CCC(=O)O)C(=O)N[C@H](C(=O)N[C@@H](CC(C)C)C(=O)N[C@@H](CCSC)C(=O)N[C@@]1(C)CCCC=CCCC[C@@](C)(C(=O)N[C@@H](CCSC)C(=O)N[C@@H](C)C(=O)N[C@@H](CC(C)C)C(N)=O)NC(=O)[C@H]([C@@H](C)CC)NC(=O)[C@H](C(C)C)NC(=O)[C@H](CC(C)C)NC1=O)C(C)C [SP-233] (Ac-FIDQEVLM[S5]LVI[S5]MAL-NH2; staple 9-13) turned out to be 15 to 30 µM

Reference source: patent US20190225650A1
